Origin of the recorded values: patent US8859550B2

Listed below: pEC50 values for each entry.
- Assay Target: human H4 (Homo sapiens)
- Construct: host or cells: CHO-K1
- Sequence (Q9H3N8 whole entry): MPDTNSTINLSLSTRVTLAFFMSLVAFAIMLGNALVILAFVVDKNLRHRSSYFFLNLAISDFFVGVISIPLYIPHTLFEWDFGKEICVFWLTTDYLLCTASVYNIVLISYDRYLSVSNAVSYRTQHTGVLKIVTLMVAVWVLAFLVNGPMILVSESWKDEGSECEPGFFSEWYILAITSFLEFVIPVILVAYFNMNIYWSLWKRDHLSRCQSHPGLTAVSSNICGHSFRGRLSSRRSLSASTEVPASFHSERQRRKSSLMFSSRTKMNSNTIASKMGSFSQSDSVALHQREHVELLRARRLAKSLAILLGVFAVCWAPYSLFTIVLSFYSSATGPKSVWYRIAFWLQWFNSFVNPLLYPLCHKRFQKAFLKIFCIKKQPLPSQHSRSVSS
- Test Details: In vitro histamine receptor cell-based assay (aequorin bioluminescence), antagonist mode
- Assay Setup: CHO-K1 cells expressing human H4, aequorin and Gα16; histamine at EC80
- Source text: The cell-based assays utilize an aequorin dependent bioluminescence signal. Doubly-transfected, stable CHO-K1 cell lines expressing human H4, or H1, mitochondrion-targeted aequorin, and (H4 only) human G protein Gα16 are obtained from Perkin-Elmer. […] In some assays, cells previously frozen at “ready to use density” are thawed and immediately available for loading with coelenterazine-h dye as described below. […]
pEC50: −log10 of the molar value.

Molecule | pEC50
CNC1CN(c2ncc(-c3cccs3)n3nnnc23)C1 [Compound 2] | ≥ 5.00

# evaluate next
Task: Which pEC50 is reported with human H4 (Homo sapiens) for this entry: CN1CCN(c2ncc(-c3cccs3)n3nnnc23)CC1 [Compound 1] ?
Result: ≥ 5.00

====

- Test Details: In-situ salt formation screen (filtrate solubility)
- Format: physicochemical
- Assay Setup: aqueous buffer, thermodynamic from solid; 0.1M aqueous Succinic Acid; filtrate pH 4.13; filtrant Free Base; read-out: Filtrate Solubility
Measured Parameter: solubility at 48 h (mg/mL)
Could you give me the number in mg/mL? Just the number is fine.

Task: Dear colleague, I am looking for the recorded solubility at 48 h of the following compound: CN1CCN(c2ncc(-c3cccs3)n3nnnc23)CC1
Result: 10.4

====

- Test Details: In-situ salt formation screen (filtrate solubility)
- Assay type: physicochemical
- Assay Setup: aqueous buffer, thermodynamic from solid; 0.1M aqueous Citric Acid; filtrate pH 3.11; filtrant Salt; read-out: Filtrate Solubility
Measured Parameter: solubility at 48 h (µg/mL)
Could you give me the number in µg/mL? Just the number is fine.

Task: Dear colleague, I am looking for the recorded solubility at 48 h of the following molecule: CN1CCN(c2ncc(-c3cccs3)n3nnnc23)CC1 [Compound 1]
Result: 1750

====

- Test Details: In-situ salt formation screen (filtrate solubility)
- Type: physicochemical
- Assay Setup: 0.1 M aqueous acid solutions (in-situ salt formation), aqueous buffer, thermodynamic from solid; salts formed in situ, under the conditions of the in-situ salt screen; read-out: solubility
Measured Parameter: solubility at 48 h

Compound | solubility at 48 h
CNC1CN(c2ncc(-c3cccs3)n3nnnc23)C1.Cl [Compound 2 hydrochloride] | > 10000 µg/mL

# evaluate next
Task: Dear colleague, I am looking for the recorded solubility at 48 h of the following compound: CN1CCN(c2ncc(-c3cccs3)n3nnnc23)CC1.O=C(O)C(O)C(O)C(=O)O [Compound 1 tartrate]
Result: > 5000 µg/mL

====

- Test Details: Equilibrium solubility study
- Assay type: physicochemical
- Assay Setup: water, pH 4.68, water, thermodynamic from solid, Water; final pH 4.68; residual solid None; read-out: Filtrate Concentration (equilibrium solubility)
Measured Parameter: solubility thermodynamic

Task: Dear colleague, I am looking for the recorded solubility thermodynamic of the following compound: CNC1CN(c2ncc(-c3cccs3)n3nnnc23)C1.CS(=O)(=O)O [Compound 2 Mesylate Form 1]
Result: > 100 mg/mL

====

- Test Details: Equilibrium solubility study
- Format: physicochemical
- Assay Setup: 0.2 M acetate buffer, pH 5, aqueous buffer, thermodynamic from solid, 0.2M Acetate Buffer (pH5); final pH 4.53; residual solid New Form/Salt; read-out: Filtrate Concentration (equilibrium solubility)
Measured Parameter: solubility thermodynamic
Number first, unit second.

Task: Dear colleague, I am looking for the recorded solubility thermodynamic of the following compound: CN1CCN(c2ncc(-c3cccs3)n3nnnc23)CC1.O=C(O)C(O)C(O)C(=O)O [Compound 1 Tartrate Salt Form 1]
Result: 2730 µg/mL
